- procedure text: Plasma concentration in CB17 SCID mouse xenografted with human PC3 cells at 10 mg/kg, po measured at 1 hr by LC/MS-MS analysis
- Assay type: ADME, organism-based, PC-3
outcome measure: concentration at 1 h
Please answer in the form of a number followed by its unit of measurement.

**Query** Endpoint output: concentration at 1 h of CCN1C(=O)CNc2ncc(-c3ccc(-c4nc[nH]n4)nc3C)nc21 [CC-115] . Value?
**Result** 6.78 µM

---

- procedure text: Tmax in rat at 5 mg/kg, po
- Assay type: ADME, organism-based
- measurement context: in vivo
outcome measure: Tmax (min)
Write down the numeric answer in min and omit the unit.

**Query** Endpoint output: Tmax of `O=C1CN(CCC2CCOCC2)c2nc(-c3ccc(-c4nc[nH]n4)nc3)cnc2N1` . Value?
**Result** 54

---

List of AUC(0-inf) values.
- procedure text: AUC (0 to infinity) in rat at 5 mg/kg, po
- Type: ADME, organism-based
- Parameters: dose 5 mg/kg, time infinity, route oral
- measurement context: in vivo
Write down the numeric answer in µM·h and omit the unit.

Worked examples, 2 compounds total:
>  <compound>
O=C1CN(CCC2CCOCC2)c2nc(-c3ccc(-c4nc[nH]n4)nc3)cnc2N1

>  <units symbol>
µM·h

>  <AUC(0-inf)>
0.18

$$$$
>  <compound>
CCN1CC(=O)Nc2ncc(-c3ccc(-c4nc[nH]n4)nc3C)nc21

>  <units symbol>
µM·h

>  <AUC(0-inf)>
5.27

$$$$

Moving on to the next compound.
**Query** Endpoint output: AUC(0-inf) of CCN1C(=O)CNc2ncc(-c3ccc(-c4nc[nH]n4)nc3C)nc21 [CC-115] . Value?
**Result** 27.5

---

- procedure text: Mean residence time in rat at 2 mg/kg, iv
- Type: ADME, organism-based
- measurement context: in vivo
outcome measure: MRT

>  <structure string>
CCN1C(=O)CNc2ncc(-c3ccc(-c4nc[nH]n4)nc3C)nc21

>  <MRT>
4.3 h

$$$$

Moving on to the next compound.
**Query** Endpoint output: MRT of `CCN1CC(=O)Nc2ncc(-c3ccc(-c4nc[nH]n4)nc3C)nc21` . Value?
**Result** 1.2 h

---

- procedure text: Plasma concentration in CB17 SCID mouse xenografted with human PC3 cells at 1 mg/kg, po measured at 3 hrs by LC/MS-MS analysis
- Type: ADME, organism-based, PC-3
outcome measure: concentration at 3 h (nM)
Write down the numeric answer in nM and omit the unit.

**Query** Endpoint output: concentration at 3 h of CCN1C(=O)CNc2ncc(-c3ccc(-c4nc[nH]n4)nc3C)nc21 [CC-115] . Value?
**Result** 340

---

- procedure text: Plasma concentration in CB17 SCID mouse xenografted with human PC3 cells at 10 mg/kg, po measured at 6 hrs by LC/MS-MS analysis
- Format: ADME, organism-based, PC-3
outcome measure: concentration at 6 h
Please answer in the form of a number followed by its unit of measurement.

**Query** Endpoint output: concentration at 6 h of CCN1C(=O)CNc2ncc(-c3ccc(-c4nc[nH]n4)nc3C)nc21 [CC-115] . Value?
**Result** 2.1 µM
